# Protocol Text: Cmax in colon of Sprague-Dawley rat at 10 mg/kg, po bid administered 7 doses over 3.5 days
# Format: ADME, organism-based
# Design: dose 10 mg/kg, route oral
Measured Endpoint: Cmax (ng/mL)
Give bare numbers, in ng/mL.

Query string: Please indicate Cmax recorded for CCOc1cc(=O)[nH]cc1-c1ccc(CC(=O)Nc2cc(C(C)(C)C(F)(F)F)on2)c(F)c1 [GSK-3179106]
Result string: 3360

====

# Protocol Text: Solubility of the compound by CLND method
# Type: physicochemical
Measured Endpoint: solubility kinetic (µM)
One number for each entry, in µM.

Query string: Please indicate solubility kinetic recorded for CCOc1cc(=O)[nH]cc1-c1ccc(CC(=O)Nc2cc(C(C)(C)C(F)(F)F)on2)c(F)c1
Result string: 21
